Test system: SW48 human colorectal cancer cells (MSI-H cancer cells)
assaySummary: SW48 cell viability, CellTiter-Glo, 120 hours (Example B)
conditionsUsed: Homo sapiens, SW48, 120 h, read-out: SW48 pCC50, SW48 cell viability, 120 hours incubation (converted); Table 2
Where a name gives a salt, the structure may show the parent alone.
// CC50 lookup, one value per entry
Report the figure in nM without appending any unit label.

Worked examples follow.
| compound | systemName | unitString | reading |
| --- | --- | --- | --- |
| CN(c1ccc([C@H]2CCC[C@@H](C(=O)Nc3ccc(C(F)(F)F)cc3F)[C@@H]2C(=O)O)cc1)S(=O)(=O)c1ccc2c(c1)CNCC2 [Example 260, hydrochloride] | SW48 human colorectal cancer cells (MSI-H cancer cells) | nM | 1580 |
| Cc1nc2cc(S(=O)(=O)N(C)c3ccc([C@H]4C[C@@](C)(O)C[C@@H](C(=O)Nc5ccc(C(F)(F)F)cc5F)[C@@H]4C(=O)O)cc3)ccc2n1C (racemic) | SW48 human colorectal cancer cells (MSI-H cancer cells) | nM | 1260 |

# ---- query compound ----
query: Write down CC50 measured for item CN(c1ccc([C@H]2CCC[C@@H](C(=O)Nc3ccc(C(F)(F)F)cc3F)[C@@H]2C(=O)O)cc1)S(=O)(=O)c1ccc2ccn(C)c2c1
result: 1260
